Exercise: for every item that follows, state its recorded normalized growth.
assay_comment: chemical genetic growth profiling, strain panel (AID 1159580);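 also: tested at 20 µM; growth read once vehicle control cultures reached saturation at 30 °C; 1 = growth at the plate median or of vehicle wells; lower values mean less growth of the strain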
measurement_setup: S. cerevisiae deletion strains, growth OD, locus YGL173C, strain kem1, active compounds read low
In all, about 5,500 compounds went through this assay and about 2,000 (36%) were called active. Roughly 18% stayed inconclusive and do not appear here. The list shows a part of the results.

Give its normalized growth value. Item: CN(C)N=Nc1nc[nH]c1C(N)=O
0.961 (inactive)

Could you do the same for Nc1ccncc1 , please?
0.99 (inactive)

Could you do the same for COC(=O)CCC(C)[C@H]1CCC2C3C(C[C@H](O)[C@@]21C)[C@@]1(C)CC[C@@H](O)C[C@H]1C[C@H]3O (stereo not given in full) , please?
1.01 (inactive)

Could you do the same for Nc1cc(-c2ccncc2)c[nH]c1=O , please?
0.715 (active)

Could you do the same for CC(=O)O[C@H]1C[C@@H](OC(C)=O)C(C)(C)C2CC(=O)[C@]3(C)C(CC[C@@]4(C)[C@H](c5ccoc5)OC(=O)[C@H]5O[C@]543)[C@]21C (stereo not given in full) , please?
0.99 (inactive)

----------
assay_comment: chemical genetic growth profiling, strain panel (AID 1159580);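 also: tested at 20 µM; growth read once vehicle control cultures reached saturation at 30 °C; 1 = growth at the plate median or of vehicle wells; lower values mean less growth of the strain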
measurement_setup: S. cerevisiae deletion strains, growth OD, locus YDL192W, strain arf1
Out of some 5,500 compounds screened, about 2,000 (36%) were called active. Inconclusive results (about 18%) are left out. No stated cut-off is given here; in the data, active means normalized growth mostly below about 0.91 (no sharp cut-off); inconclusive means no clear call, values can overlap the other calls; inactive means mostly above about 0.92. The list shows a part of the results.
Form entry, call: pick from active, inactive

// return assay outcome for O=C(O)CCCOc1ccc(Cl)cc1Cl
inactive

Could you do the same for Cc1nc2ccccn2c(=O)c1CCN1CCC(C(=O)c2ccc(F)cc2)CC1 , please?
inactive

Could you do the same for COc1cc2c(cc1O)C(Cc1ccc(O)cc1)N(C)CC2 (configuration not stated) , please?
inactive

Could you do the same for O=C(O)c1ccccc1C(=O)Nc1ccc(S(=O)(=O)Nc2nccs2)cc1 , please?
inactive

Could you do the same for O=c1[nH]cnc2[nH]ncc12 , please?
inactive

Could you do the same for CCCC(CCC)C(=O)O , please?
inactive

Could you do the same for C[C@@H]1O[C@@H](O[C@H]2C[C@@H](O)[C@]3(CO)C4C(CC[C@]3(O)C2)[C@@]2(O)CC[C@H](C3=CC(=O)OC3)[C@@]2(C)C[C@H]4O)[C@H](O)[C@H](O)[C@H]1O (some centres not stated) , please?
inactive

Could you do the same for O=c1cc(-c2ccccc2)oc2cc(O)cc(O)c12 , please?
inactive

Could you do the same for NNCCc1ccccc1 , please?
inactive

Could you do the same for C[C@H](N)[C@H](O)c1cccc(O)c1 , please?
inactive

Could you do the same for CC1(C)C(O)CC(O)C2(C)C1CC(O)C1(C)C2CCC2(C)C(c3ccoc3)OC(=O)C3OC321 (configuration not stated) , please?
inactive

Could you do the same for COc1ccc(C(=O)CC(=O)c2ccc(C(C)(C)C)cc2)cc1 , please?
inactive

Could you do the same for COc1cc2c(cc1-c1cc3cc4ccoc4cc3oc1=O)OCO2 , please?
inactive

Could you do the same for CN(C)N=Nc1nc[nH]c1C(N)=O , please?
inactive

Could you do the same for COc1cc2c(cc1/C=C/C(=O)c1cc(OC)c(OC)cc1OC)OCO2 , please?
inactive

Could you do the same for CC(=O)Nc1ccccc1 , please?
inactive

Could you do the same for CC(CCC(=O)O)[C@H]1CCC2C3C(C[C@H](O)[C@@]21C)[C@@]1(C)CC[C@@H](O)C[C@H]1C[C@H]3O (some centres not stated) , please?
inactive

Could you do the same for CCN(CCCc1ccccc1)CCCc1ccccc1 , please?
inactive

Could you do the same for O=C(Nc1ccccc1)c1ccccc1O , please?
inactive

Could you do the same for CSc1ccc2c(c1)N(CCC1CCCCN1C)c1ccccc1S2 (configuration not stated) , please?
active

Could you do the same for N[C@H](Cc1cc(I)c(Oc2ccc(O)c(I)c2)c(I)c1)C(=O)O , please?
inactive

Could you do the same for Cc1cc(=O)oc2c(O)c(O)ccc12 , please?
inactive

Could you do the same for O=C(O)Cc1cc(I)c(Oc2cc(I)c(O)c(I)c2)c(I)c1 , please?
inactive

Could you do the same for O=c1cc(-c2cc(O)c(O)c(O)c2)oc2cc(O)cc(O)c12 , please?
inactive

Could you do the same for N[C@@H](Cc1cc(I)c(Oc2cc(I)c(O)c(I)c2)c(I)c1)C(=O)O , please?
active

Could you do the same for COc1c2ccoc2nc2c(OC)c(OCC(O)C(C)(C)O)ccc12 (configuration not stated) , please?
inactive

Could you do the same for NS(=O)(=O)c1cc2c(cc1Cl)NC(C1CC3C=CC1C3)NS2(=O)=O (configuration not stated) , please?
inactive

Could you do the same for S=P(N1CC1)(N1CC1)N1CC1 , please?
inactive

Could you do the same for C[C@H](N)[C@H](O)c1ccccc1 , please?
inactive

Could you do the same for COc1c(Cl)ccc(Cl)c1C(=O)O , please?
inactive

Could you do the same for NCC(CC(=O)O)c1ccc(Cl)cc1 (configuration not stated) , please?
inactive

Could you do the same for O=c1cc(-c2ccccc2)oc2c(O)c(O)ccc12 , please?
active

Could you do the same for CN(C)CCOC(=O)C(c1ccccc1)C1(O)CCCC1 (configuration not stated) , please?
inactive

Could you do the same for COC(=O)CCCOc1ccc(Cl)cc1Cl , please?
inactive

Could you do the same for COc1c2ccccc2nc2occc12 , please?
active

Could you do the same for COc1cc(S(C)=O)ccc1-c1nc2ncccc2[nH]1 (configuration not stated) , please?
inactive

Could you do the same for Nc1ccn(C2O[C@H](CO)[C@@H](O)[C@H]2O)c(=O)n1 (some centres not stated) , please?
inactive

Could you do the same for N[C@@H]1[C@@H](O)[C@H](O)[C@@H](CO)O[C@H]1O , please?
inactive

Could you do the same for CO[C@]12C[C@@H](COC(=O)c3cncc(Br)c3)CN(C)[C@@H]1Cc1cn(C)c3cccc2c13 , please?
inactive

Could you do the same for CN(C)CCC(c1ccc(Br)cc1)c1ccccn1 (configuration not stated) , please?
inactive

Could you do the same for C[C@@H](N)[C@@H](O)c1ccccc1 , please?
inactive

Could you do the same for CC1(C)C(=O)C=C[C@@]2(C)C1CC(=O)[C@@]1(C)C3=CC(=O)O[C@@H](c4ccoc4)[C@]3(C)CCC12 (some centres not stated) , please?
inactive

Could you do the same for O=c1cc(-c2ccccc2)oc2cc(O)c(O)c(O)c12 , please?
active

Could you do the same for CC[C@H](CCC(C)[C@H]1CCC2C3CCC4C[C@@H](O)CC[C@]4(C)C3CC[C@@]21C)C(C)C (some centres not stated) , please?
inactive

Could you do the same for N[C@@H](Cc1cc(I)c(Oc2ccc(O)c(I)c2)c(I)c1)C(=O)O , please?
inactive

Could you do the same for CC(C)CCCC(C)C1CCC2C3CC[C@H]4CCCC[C@]4(C)C3CC[C@]12C (some centres not stated) , please?
inactive

Could you do the same for C=C[C@H]1CN2CC[C@H]1C[C@@H]2[C@H](O)c1ccnc2ccccc12 , please?
inactive

The measurements presented in this section are drawn from PubChem BioAssay AID1159580.
